- SYSTEM: recombinant human FLAP protein (Homo sapiens, UniProt P20292)
- Sequence (P20292 1-161): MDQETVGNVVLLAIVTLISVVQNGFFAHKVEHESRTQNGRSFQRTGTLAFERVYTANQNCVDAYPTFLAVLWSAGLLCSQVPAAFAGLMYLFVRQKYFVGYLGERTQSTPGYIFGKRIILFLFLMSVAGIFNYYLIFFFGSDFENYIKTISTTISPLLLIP
- ASSAY INFO: FLAP binding assay (SPA, displacement of [125I]L-691,831)
- RECORDED CONDITIONS: membranes of sf9 cells expressing human FLAP, [125I]L-691,831 probe; read-out: hFLAP binding IC50
Listing of recorded IC50 by entry.
Write the answer as a number in nM, unit excluded.

MOLECULE	QUANTITY UNIT	ASSAY VALUE
Nc1ncc(-c2ccc(C3(C(=O)Nc4cccnc4)CCC3)cc2)cn1	nM	51.6
COc1cncc(-c2ccc(NC(=O)C(C)(c3ccc(-c4cnc(N)nc4)cc3)C(C)C)nc2)c1 (centres unmarked)	nM	4.1
Nc1ncc(-c2ccc(C3(C(=O)Nc4ccc(-c5cccnc5)cn4)CCC3)cc2)cn1	nM	2.15

Q. Name the recorded IC50 of the molecule listed here: Cc1ccc2cc(NC(=O)C3(c4ccc(-c5cnc(N)nc5)cc4)CCOCC3)ccc2n1
A. 18.7

Q. Name the recorded IC50 of the molecule listed here: COc1ncc(-c2ccc(C(C)(C(=O)Nc3ccc(-c4csc(C)n4)cc3)C(C)C)cc2)cn1 (centres unmarked)
A. 430

Q. Name the recorded IC50 of the molecule listed here: CC(C)(O)c1ccc(NC(=O)C2(c3ccc(-c4cnc(N)nc4)cc3)CCOCC2)nc1
A. 420
